# Test system: recombinant SARS2 encoding WT M^pro
# assayName: microbe, parasite or virus in culture
# Format: cell-based
# measurementConditions: Severe acute respiratory syndrome coronavirus 2; replication-competent SARS-CoV-2, M^pro WT; A549-hACE2 cells, 72 hpi; read-out: IC50 (95% CI)
Field: IC50. Provide a value for each of the compounds that follow.
Numbers only, in nM.

Recorded results for 2 compounds are shown here.
>  <molecularString>
CCC(CC)COC(=O)[C@H](C)N[P@](=O)(OC[C@H]1O[C@@](C#N)(c2ccc3c(N)ncnn23)[C@H](O)[C@@H]1O)Oc1ccccc1

>  <IC50 (nM)>
1200

$$$$
>  <molecularString>
Cn1cnc(Cn2c(=O)[nH]/c(=N\c3cc4cn(C)nc4cc3Cl)n(Cc3cc(F)c(F)cc3F)c2=O)n1

>  <IC50 (nM)>
4.3

$$$$

Shifting focus to the compound that follows.
Asked: Using the record for CC(C)(C)[C@H](NC(=O)C(F)(F)F)C(=O)N1C[C@H]2[C@@H]([C@H]1C(=O)N[C@H](C#N)C[C@@H]1CCNC1=O)C2(C)C , report its IC50.
Given back: 4.4

----------
# Tested on: recombinant SARS2 encoding ∆P168 M^pro
# assayName: microbe, parasite or virus in culture
# Assay type: cell-based
# measurementConditions: Severe acute respiratory syndrome coronavirus 2; read-out: IC50 (95% CI)
Field: pIC50. Provide a value for each of the compounds that follow.
Numbers only, as −log10 of the molar value.

>  <molecularString>
CC(C)(C)[C@H](NC(=O)C(F)(F)F)C(=O)N1C[C@H]2[C@@H]([C@H]1C(=O)N[C@H](C#N)C[C@@H]1CCNC1=O)C2(C)C

>  <testValue>
8.15

$$$$

Would you mind giving pIC50 for every compound in the list below?
1. Cn1cnc(Cn2c(=O)[nH]/c(=N\c3cc4cn(C)nc4cc3Cl)n(Cc3cc(F)c(F)cc3F)c2=O)n1
2. CCC(CC)COC(=O)[C@H](C)N[P@](=O)(OC[C@H]1O[C@@](C#N)(c2ccc3c(N)ncnn23)[C@H](O)[C@@H]1O)Oc1ccccc1

Given back:
8.44
5.96
